- Tested on: Mus musculus
- assayProcedure: Anticonvulsant activity in CF1 mouse assessed as protection against maximal electroshock-induced seizures at 100 mg/kg, ip after 0.5 hrs
- Assay type: functional, organism-based
- Parameters: dose 100 mg/kg
Activity calls are given as the source filed them. The calls are words filed in the database; no cut-off is given here.
Outcomes: True for active, False for inactive

structureSmiles: Cl.Cl.Cl.O=c1c2ccc(Cl)cc2oc2c(CN3CCN(CCO)CC3)cccc12
class: True
--
structureSmiles: COc1ccc2c(=O)c3cc(CN4CCN(c5ccccc5OC)CC4)ccc3oc2c1
class: False
--
structureSmiles: COc1ccc2c(=O)c3cccc(CN4CCN(c5ccccc5OC)CC4)c3oc2c1.Cl
class: False
--
structureSmiles: COc1ccc2c(=O)c3cc(CN4CCN(Cc5ccccc5)CC4)ccc3oc2c1
class: False

====

- Tested on: Mus musculus
- assayProcedure: Neurotoxicity in CF1 mouse assessed as minimal motor impairment at 300 mg/kg, ip after 0.5 hrs by rotorod test
- Format: toxicity, organism-based
- Parameters: dose 300 mg/kg, route intraperitoneal
- condition: in vivo

structureSmiles: Cl.Cl.Cl.O=c1c2ccc(Cl)cc2oc2c(CN3CCN(CCO)CC3)cccc12
Activity: Toxic
//
structureSmiles: COc1ccc2c(=O)c3cc(CN4CCN(C)CC4)ccc3oc2c1
Activity: Toxic
//
structureSmiles: COc1ccc2c(=O)c3cc(CN4CCN(c5ccccc5OC)CC4)ccc3oc2c1
Activity: Non-toxic
//
structureSmiles: COc1ccc2c(=O)c3cc(CN4CCN(Cc5ccccc5)CC4)ccc3oc2c1
Activity: Non-toxic

====

- assayProcedure: Displacement of [3H]CGP-12177 from beta1-adrenergic receptor in rat cerebral cortex after 60 mins by scintillation counting
- Type: tissue-based
pKi: −log10 of the molar value.
# pKi listing for each entry below
quantityName: pKi

structureSmiles: COc1ccc2c(=O)c3cc(CN4CCN(c5ccccc5OC)CC4)ccc3oc2c1.Cl
obsValue: < 4.52
//
structureSmiles: COc1ccccc1N1CCN(Cc2ccc3oc4ccccc4c(=O)c3c2)CC1.Cl
obsValue: < 5.00

====

# Ki listing for each entry below
- targetUnderTest: 5-hydroxytryptamine receptor 7 (Homo sapiens, UniProt P34969)
- Sequence (P34969 whole entry): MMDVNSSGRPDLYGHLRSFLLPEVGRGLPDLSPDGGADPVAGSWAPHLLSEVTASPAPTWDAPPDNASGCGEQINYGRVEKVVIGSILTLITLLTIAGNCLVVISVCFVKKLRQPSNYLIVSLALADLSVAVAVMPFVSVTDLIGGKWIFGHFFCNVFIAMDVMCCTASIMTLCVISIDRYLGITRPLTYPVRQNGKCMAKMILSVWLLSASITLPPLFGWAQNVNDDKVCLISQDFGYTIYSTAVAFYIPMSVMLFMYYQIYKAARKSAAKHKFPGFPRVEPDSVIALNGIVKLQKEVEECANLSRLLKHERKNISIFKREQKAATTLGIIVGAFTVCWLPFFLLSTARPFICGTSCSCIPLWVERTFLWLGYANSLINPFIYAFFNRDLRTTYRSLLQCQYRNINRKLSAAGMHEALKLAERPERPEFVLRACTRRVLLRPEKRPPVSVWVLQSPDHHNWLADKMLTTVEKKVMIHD
quantityName: Ki (µM)

structureSmiles: COc1ccccc1N1CCN(Cc2ccc3oc4ccccc4c(=O)c3c2)CC1.Cl
quantityName: Ki
obsValue: 0.426
--
structureSmiles: COc1ccc2c(=O)c3cc(CN4CCN(Cc5ccccc5)CC4)ccc3oc2c1.Cl.Cl
quantityName: Ki
obsValue: 13.5
--
structureSmiles: COc1ccc2c(=O)c3cc(CN4CCN(C)CC4)ccc3oc2c1.Cl.Cl
quantityName: Ki
obsValue: 17
--
structureSmiles: CN1CCN(Cc2cccc3c(=O)c4ccc(Cl)cc4oc23)CC1.Cl.Cl.Cl
quantityName: Ki
obsValue: 10.5

====

- assayProcedure: Neurotoxicity in po dosed Sprague-Dawley rat assessed as minimal motor impairment by rotorod test
- Type: toxicity, organism-based
- condition: in vivo
quantityName: TD50

structureSmiles: COc1ccc2c(=O)c3cc(CN4CCN(Cc5ccccc5)CC4)ccc3oc2c1
obsValue: > 300 mg/kg

====

# log10 Ki listing for each entry below
- targetUnderTest: Adrenergic receptor alpha-1 (Rattus norvegicus, UniProt P15823+P23944+P43140)
- assayProcedure: Displacement of [3H]prazosin from alpha1-adrenergic receptor in rat cerebral cortex after 30 mins by scintillation counting
- Assay type: tissue-based
quantityName: log10 Ki (log10 of the value in nM)

structureSmiles: Cl.Cl.Cl.O=c1c2ccc(Cl)cc2oc2c(CN3CCN(CCO)CC3)cccc12
log10 Ki: 3.59

structureSmiles: COc1ccc2c(=O)c3cc(CN4CCN(Cc5ccccc5)CC4)ccc3oc2c1.Cl.Cl
log10 Ki: 2.49

structureSmiles: CN1CCN(Cc2cccc3c(=O)c4ccc(Cl)cc4oc23)CC1.Cl.Cl.Cl
log10 Ki: 2.81

structureSmiles: COc1ccc2c(=O)c3cccc(CN4CCN(c5ccccc5OC)CC4)c3oc2c1.Cl
log10 Ki: 2.23

structureSmiles: COc1ccc2c(=O)c3cc(CN4CCN(c5ccccc5OC)CC4)ccc3oc2c1.Cl
log10 Ki: 2.58

structureSmiles: COc1ccccc1N1CCN(Cc2ccc3oc4ccccc4c(=O)c3c2)CC1.Cl
log10 Ki: 3.56

structureSmiles: COc1ccc2c(=O)c3cc(CN4CCN(C)CC4)ccc3oc2c1.Cl.Cl
log10 Ki: 2.69

====

Target or system 5-hydroxytryptamine receptor 6 (Homo sapiens): recorded pKi listed per item.
pKi: −log10 of the molar value.

structureSmiles: COc1ccc2c(=O)c3cc(CN4CCN(Cc5ccccc5)CC4)ccc3oc2c1.Cl.Cl
pKi: 5.05

structureSmiles: COc1ccc2c(=O)c3cc(CN4CCN(C)CC4)ccc3oc2c1.Cl.Cl
pKi: 4.72

====

- Test system: Mus musculus
- assayProcedure: Anticonvulsant activity in CF1 mouse assessed as protection against maximal electroshock-induced seizures at 30 mg/kg, ip after 4 hrs
- Type: functional, organism-based
- Design: dose 30 mg/kg
Activity calls are given as the source filed them. The calls are words filed in the database; no cut-off is given here.
quantityName: Activity

structureSmiles: COc1ccc2c(=O)c3cc(CN4CCN(Cc5ccccc5)CC4)ccc3oc2c1
targetUnderTest: Mus musculus
obsValue: inactive
//
structureSmiles: Cl.Cl.Cl.O=c1c2ccc(Cl)cc2oc2c(CN3CCN(CCO)CC3)cccc12
targetUnderTest: Mus musculus
obsValue: inactive
//
structureSmiles: COc1ccc2c(=O)c3cc(CN4CCN(C)CC4)ccc3oc2c1
targetUnderTest: Mus musculus
obsValue: inactive
//
structureSmiles: COc1ccc2c(=O)c3cc(CN4CCN(c5ccccc5OC)CC4)ccc3oc2c1
targetUnderTest: Mus musculus
obsValue: inactive
//
structureSmiles: COc1ccc2c(=O)c3cccc(CN4CCN(c5ccccc5OC)CC4)c3oc2c1.Cl
targetUnderTest: Mus musculus
obsValue: inactive

====

- Tested on: Mus musculus
- assayProcedure: Neurotoxicity in CF1 mouse assessed as minimal motor impairment at 100 mg/kg, ip after 4 hrs by rotorod test
- Assay type: toxicity, organism-based
- Parameters: dose 100 mg/kg, route intraperitoneal
- condition: in vivo

structureSmiles: Cl.Cl.Cl.O=c1c2ccc(Cl)cc2oc2c(CN3CCN(CCO)CC3)cccc12
targetUnderTest: Mus musculus
Activity: Non-toxic
//
structureSmiles: COc1ccc2c(=O)c3cccc(CN4CCN(c5ccccc5OC)CC4)c3oc2c1.Cl
targetUnderTest: Mus musculus
Activity: Non-toxic
//
structureSmiles: COc1ccc2c(=O)c3cc(CN4CCN(C)CC4)ccc3oc2c1
targetUnderTest: Mus musculus
Activity: Non-toxic
//
structureSmiles: COc1ccc2c(=O)c3cc(CN4CCN(Cc5ccccc5)CC4)ccc3oc2c1
targetUnderTest: Mus musculus
Activity: Non-toxic
//
structureSmiles: COc1ccc2c(=O)c3cc(CN4CCN(c5ccccc5OC)CC4)ccc3oc2c1
targetUnderTest: Mus musculus
Activity: Non-toxic

Ref: ChEMBL document CHEMBL2401625
